Consider the following molecules; for each one, report its TGI.
Tested on: SK-OV-3 ovarian
Test: NCI tumour cell line growth inhibition, 48 h
Peptide text beside a SMILES is read from it. * marks the point of attachment. X26 = Clc1c(Cl)c(Cl)c(O*)c(Cl)c1Cl; Boc = CC(C)(C)OC(=O)*; OBn = c1ccc(CO*)cc1; Bn = c1ccc(C*)cc1
Give your result in µM as a bare value.

Prompt: Fill blank: measured TGI of the molecule CC(C)CC(NC(=O)C(CCC(=O)OCc1ccccc1)NC(=O)OC(C)(C)C)C(=O)NC(COCc1ccccc1)C(=O)NC(Cc1ccccc1)C(=O)Oc1c(Cl)c(Cl)c(Cl)c(Cl)c1Cl (stereo not drawn) (Boc-E(OBn)LS(Bn)F-X26; configuration not given here) is ____.
Completion: 83.8

Prompt: Fill blank: measured TGI of the molecule `CN(C)CCCNc1cc(O)c2c(c1O)C(=O)c1ccccc1C2=O` is ____.
Completion: 24.8

Prompt: Fill blank: measured TGI of the molecule `CCCCCCc1cc2cc(-c3csc(-c4ccc(OC)cc4)n3)c(=O)oc2cc1O` is ____.
Completion: 33.1
